Each recorded value in this set is attributed to patent US20250320204A1.

experimental target: ENPP1 (Homo sapiens, UniProt P22413)
assay summary: Measurement of 2′3′-cGAMP hydrolysis by ENPP1 (AMP-Glo)
Type: biochemical
condition parameters: 2′3′-cGAMP substrate 100 μM, KM 32 μM; Ki from IC50 by Cheng-Prusoff
pKi: −log10 of the molar value.
Entries and their pKi

Sample COc1nccc2c(OCc3cc(F)cc([S@@](=N)(=O)C4CC4)c3)ccnc12 (single isomer, unassigned) [Example 67] ; pKi observed: > 9.00

Sample CS(=N)(=O)c1cccc(COc2ccnc3cnccc23)c1 (centres unmarked) [Example 9] ; pKi observed: 8.30 to 9.00

====

Entries and their pKi
experimental target: UniProt:P22413
assay summary: Measurement of pNP-TMP hydrolysis by ENPP1
Type: biochemical
condition parameters: pNP-TMP substrate 500 μM, Km 232 μM; Ki from IC50 by Cheng-Prusoff
pKi: −log10 of the molar value.

Study these solved cases before continuing.
>>> data_value("COc1nccc2c(OCc3cccc([S@@](=N)(=O)C4CC4)c3)ccnc12 [Example 17b]")
"> 8.00"
>>> data_value("COc1nccc2c(Oc3cccc(S(C)(=N)=O)c3)ccnc12 (centres unmarked) [Example 51]")
"5.00 to 7.00"
>>> data_value("COc1nccc2c(N3CCC4(C3)CN(S(C)(=N)=O)C4)ccnc12 (centres unmarked) [Example 44]")
"> 8.00"
>>> data_value("COc1nccc2c(N3CC(CCCS(C)(=N)=O)C3)ccnc12 (centres unmarked) [Example 3]")
"> 8.00"

Okay, next one:
Sample CN=S(C)(=O)CC1(O)CCN(c2ccnc3c(OC)nccc23)CC1 (centres unmarked) [Example 57] ; pKi observed: > 8.00

====

experimental target: ENPP1 (Homo sapiens)
assay summary: Measurement of pNP-TMP hydrolysis by ENPP1
Assay type: biochemical
condition parameters: pNP-TMP substrate 500 μM, Km 232 μM; Ki from IC50 by Cheng-Prusoff
Entries and their Ki

>>> data_value("COc1nccc2c(N3CCC(O)(CS(=N)(=O)C4CC4)CC3)ccnc12 (centres unmarked)")
"< 10 nM"
>>> data_value("COc1nccc2c(OCc3cccc([S@@](=N)(=O)C(C)C)c3)ccnc12")
"< 10 nM"
>>> data_value("CS(=N)(=O)CC1CC2(C1)CN(c1ccnc3cnccc13)C2 (centres unmarked)")
"< 10 nM"
>>> data_value("CCCOc1nccc2c(OCc3cccc(S(=N)(=O)C4CC4)c3)ccnc12 (centres unmarked)")
"100 to 10000 nM"
>>> data_value("CS(=N)(=O)CC1CC2(C1)CN(c1ncnc3c(O)nccc13)C2 (single isomer, unassigned)")
"10 to 100 nM"

Sample `COc1nccc2c(OCc3cccc([S@](=N)(=O)C(C)(C)C)c3)ccnc12` ; Ki observed: 10 to 100 nM

Sample COc1nccc2c(N3CC4(CCN(S(C)(=N)=O)C4)C3)ccnc12 (centres unmarked) ; Ki observed: < 10 nM

Sample CS(=N)(=O)c1cccc(COc2ccnc3c(OCF)nccc23)c1 (racemic) ; Ki observed: < 10 nM

Sample CN=S(=O)(c1cccc(COc2ncnc3c(OC)nccc23)c1)C1CC1 (centres unmarked) ; Ki observed: 100 to 10000 nM

Sample C[S@@](=N)(=O)c1cccc(COc2ccnc3c(OCF)nccc23)c1 (single isomer, unassigned) ; Ki observed: 10 to 100 nM

====

Entries and their Ki
experimental target: UniProt:P22413
Sequence (P22413 1-925): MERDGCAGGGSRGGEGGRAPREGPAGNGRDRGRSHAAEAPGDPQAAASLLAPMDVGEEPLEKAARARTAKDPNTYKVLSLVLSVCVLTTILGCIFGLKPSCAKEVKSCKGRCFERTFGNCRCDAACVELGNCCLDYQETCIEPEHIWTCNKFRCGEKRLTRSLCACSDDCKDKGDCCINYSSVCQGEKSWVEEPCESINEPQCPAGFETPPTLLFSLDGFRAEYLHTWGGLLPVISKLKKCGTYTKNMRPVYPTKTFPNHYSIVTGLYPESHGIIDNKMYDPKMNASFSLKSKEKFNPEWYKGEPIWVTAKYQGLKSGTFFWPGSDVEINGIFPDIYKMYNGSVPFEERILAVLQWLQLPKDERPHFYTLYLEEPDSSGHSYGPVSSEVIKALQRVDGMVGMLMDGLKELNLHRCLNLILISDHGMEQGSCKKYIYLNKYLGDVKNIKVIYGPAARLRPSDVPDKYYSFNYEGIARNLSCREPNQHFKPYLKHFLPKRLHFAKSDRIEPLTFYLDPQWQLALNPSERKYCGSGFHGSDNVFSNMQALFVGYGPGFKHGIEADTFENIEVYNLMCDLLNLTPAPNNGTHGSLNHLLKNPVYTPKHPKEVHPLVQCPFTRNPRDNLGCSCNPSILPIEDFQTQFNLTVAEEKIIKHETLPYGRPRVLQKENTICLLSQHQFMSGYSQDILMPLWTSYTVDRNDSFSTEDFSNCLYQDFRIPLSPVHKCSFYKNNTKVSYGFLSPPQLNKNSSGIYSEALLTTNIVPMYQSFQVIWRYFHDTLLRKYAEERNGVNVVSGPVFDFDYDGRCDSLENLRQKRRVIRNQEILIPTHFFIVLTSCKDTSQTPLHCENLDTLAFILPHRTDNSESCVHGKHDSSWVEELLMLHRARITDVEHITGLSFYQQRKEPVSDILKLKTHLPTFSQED
assay summary: Measurement of pNP-TMP hydrolysis by ENPP1
Assay type: biochemical
condition parameters: pNP-TMP substrate 500 μM, Km 232 μM; Ki from IC50 by Cheng-Prusoff

Sample CS(=N)(=O)CC1(O)CCN(c2ccnc3c(OC4CC4)nccc23)CC1 (stereo not drawn) ; Ki observed: 10 to 100 nM

====

Entries and their pKi
experimental target: ENPP1 (Homo sapiens, UniProt P22413)
Sequence (P22413 1-925): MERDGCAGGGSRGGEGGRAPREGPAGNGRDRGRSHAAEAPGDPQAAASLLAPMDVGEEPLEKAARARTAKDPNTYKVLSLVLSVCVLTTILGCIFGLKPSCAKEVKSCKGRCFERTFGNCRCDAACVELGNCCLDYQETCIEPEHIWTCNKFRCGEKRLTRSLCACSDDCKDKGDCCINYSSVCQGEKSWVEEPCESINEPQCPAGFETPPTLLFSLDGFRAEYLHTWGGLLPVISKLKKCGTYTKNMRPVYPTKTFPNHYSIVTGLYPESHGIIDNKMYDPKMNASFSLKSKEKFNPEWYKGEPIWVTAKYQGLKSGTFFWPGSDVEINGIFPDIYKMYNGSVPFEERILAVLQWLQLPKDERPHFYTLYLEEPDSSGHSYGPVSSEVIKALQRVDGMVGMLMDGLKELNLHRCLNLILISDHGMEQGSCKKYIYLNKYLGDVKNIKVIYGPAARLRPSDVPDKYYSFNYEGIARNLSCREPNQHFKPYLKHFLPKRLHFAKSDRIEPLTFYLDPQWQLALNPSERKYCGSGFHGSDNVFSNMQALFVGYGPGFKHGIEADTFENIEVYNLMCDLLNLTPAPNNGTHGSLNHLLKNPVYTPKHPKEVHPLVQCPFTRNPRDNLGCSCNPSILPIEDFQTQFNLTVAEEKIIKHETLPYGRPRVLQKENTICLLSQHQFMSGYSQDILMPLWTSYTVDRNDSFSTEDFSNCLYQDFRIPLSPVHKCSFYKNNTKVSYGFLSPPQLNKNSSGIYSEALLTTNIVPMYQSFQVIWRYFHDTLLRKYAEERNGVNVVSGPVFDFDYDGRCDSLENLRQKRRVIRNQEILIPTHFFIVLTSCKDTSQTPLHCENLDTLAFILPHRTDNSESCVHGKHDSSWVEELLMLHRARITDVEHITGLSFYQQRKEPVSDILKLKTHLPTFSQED
assay summary: Measurement of pNP-TMP hydrolysis by ENPP1
Assay type: biochemical
condition parameters: pNP-TMP substrate 500 μM, Km 232 μM; Ki from IC50 by Cheng-Prusoff
pKi: −log10 of the molar value.

Study these solved cases before continuing.
>>> data_value("COc1nccc2c(N3CC4(CC(CS(C)(=N)=O)C4)C3)ncnc12 (single isomer, unassigned)")
"> 8.00"
>>> data_value("COc1nccc2c(OCc3cc(F)cc([S@@](=N)(=O)C4CC4)c3)ccnc12 (single isomer, unassigned)")
"> 8.00"
>>> data_value("COc1nccc2c(OCc3cc(F)cc([S@@](C)(=N)=O)c3)ccnc12 (single isomer, unassigned)")
"> 8.00"

Sample COc1nccc2c(OCc3cccc([S@](=N)(=O)C4CC4)c3)ccnc12 [Example 17a] ; pKi observed: 7.00 to 8.00

====

Entries and their Ki
experimental target: ENPP1 (Homo sapiens, UniProt P22413)
Sequence (P22413 1-925): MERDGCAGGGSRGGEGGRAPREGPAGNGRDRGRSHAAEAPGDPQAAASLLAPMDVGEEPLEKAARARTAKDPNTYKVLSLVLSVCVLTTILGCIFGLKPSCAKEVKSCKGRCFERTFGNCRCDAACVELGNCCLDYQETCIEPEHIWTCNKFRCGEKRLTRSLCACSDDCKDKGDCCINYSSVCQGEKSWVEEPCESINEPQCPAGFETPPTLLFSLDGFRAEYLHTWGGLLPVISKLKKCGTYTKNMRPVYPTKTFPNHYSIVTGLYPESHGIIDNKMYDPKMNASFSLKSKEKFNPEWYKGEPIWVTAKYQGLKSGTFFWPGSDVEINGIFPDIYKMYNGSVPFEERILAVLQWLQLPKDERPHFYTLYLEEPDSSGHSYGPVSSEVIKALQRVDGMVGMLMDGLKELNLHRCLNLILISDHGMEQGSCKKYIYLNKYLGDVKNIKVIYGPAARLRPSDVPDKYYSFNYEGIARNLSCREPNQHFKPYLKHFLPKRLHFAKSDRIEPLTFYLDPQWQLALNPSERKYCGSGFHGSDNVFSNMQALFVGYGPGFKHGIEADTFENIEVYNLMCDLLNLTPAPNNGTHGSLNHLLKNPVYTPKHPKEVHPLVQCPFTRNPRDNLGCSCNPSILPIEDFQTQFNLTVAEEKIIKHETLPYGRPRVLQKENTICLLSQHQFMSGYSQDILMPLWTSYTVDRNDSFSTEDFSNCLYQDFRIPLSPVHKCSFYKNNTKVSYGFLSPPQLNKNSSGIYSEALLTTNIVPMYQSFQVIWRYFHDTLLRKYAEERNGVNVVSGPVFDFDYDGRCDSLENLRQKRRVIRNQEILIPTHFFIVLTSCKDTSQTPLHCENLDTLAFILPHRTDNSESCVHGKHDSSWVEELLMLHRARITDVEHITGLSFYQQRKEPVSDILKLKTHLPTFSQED
assay summary: Measurement of pNP-TMP hydrolysis by ENPP1
Format: biochemical
condition parameters: pNP-TMP substrate 500 μM, Km 232 μM; Ki from IC50 by Cheng-Prusoff

Study these solved cases before continuing.
>>> data_value("COc1nccc2c(Oc3ccc(S(C)(=N)=O)cc3)ccnc12 (stereo not shown) [Example 50]")
"< 10 nM"
>>> data_value("COc1nccc2c(OCc3cccc([S@@](=N)(=O)C(C)(C)C)c3)ccnc12 [Example 74]")
"< 10 nM"
>>> data_value("N=[S@](=O)(c1cccc(COc2ccnc3c(OCF)nccc23)c1)C1CC1 (single isomer, unassigned) [Example 42]")
"10 to 100 nM"

Sample C[S@](=N)(=O)c1cccc(COc2ccnc3c(OCF)nccc23)c1 (single isomer, unassigned) [Example 79] ; Ki observed: < 10 nM

Sample CC(C)Oc1nccc2c(OCc3cccc(S(=N)(=O)C4CC4)c3)ccnc12 (stereo not shown) [Example 61] ; Ki observed: 100 to 10000 nM

Sample COc1nccc2c(OCc3cccc([S@@](C)(=N)=O)c3)ccnc12 [Example 75] ; Ki observed: < 10 nM

Sample CN=S(C)(=O)N1CCC2(CCN(c3ccnc4c(OC)nccc34)C2)CC1 (stereo not shown) [Example 53] ; Ki observed: 100 to 10000 nM
